- Assay method text: qHTS to identify inhibitors of the type 1 interferon - major histocompatibility complex class I in skeletal muscle: primary screen against the NCATS Mechanism Interrogation Plate v5.0 (MIPE) Libary (AID 1347411); also: nearly all actives have a fitted effect of over 65% in size
- Condition summary: iHSKM cells + IFN-b, HiBiT-tagged MHC-I luminescence, 24 h; series mostly up to 45.8 µM
Records with an inconclusive call do not appear. Activity calls are given as the source filed them. Calls follow the shape of the dose curve; as a rule, active = well fitted inhibition curve with a large enough effect; inconclusive = small, poorly fitted or top-dose-only effect; inactive = no such curve, though single readings can be large or run the other way. Where a SMILES comes first, the peptide text is derived from it. Bridges are numbered along the chain shown (N, C = ends). [ ]: non-standard residue; d: D form. The star is where a group is joined. X1 = CCC(C)C(N)C1=NC(C(=O)*)CS1; dOrn = NCCC[C@@H](N)C(=O)O
Hello, when you answer, please use one of the following outcomes: Yes for active, No for inactive

• C[C@H]1[C@H](C)CC[C@]2(C(=O)O)CC[C@]3(C)C(=CC[C@@H]4[C@@]5(C)C[C@@H](O)[C@H](O)[C@@](C)(CO)[C@@H]5CC[C@]43C)[C@H]12 = No
• CN1CC[C@@H](NC(=O)Nc2ccc(C#N)cc2)C[C@@H]1c1nc2ccccc2[nH]1 = No
• CO[C@@H]1COCC[C@@H]1N[C@@H]1CC[C@@](C(=O)N2CCc3ncc(C(F)(F)F)cc3C2)(C(C)C)C1 = No
• CCC(C)C(N)C1=NC(C(=O)N[C@@H](CC(C)C)C(=O)N[C@H](CCC(=O)O)C(=O)N[C@H](C(=O)N[C@H]2CCCCNC(=O)[C@H](CC(N)=O)NC(=O)[C@@H](CC(=O)O)NC(=O)[C@H](Cc3cnc[nH]3)NC(=O)[C@@H](Cc3ccccc3)NC(=O)[C@H]([C@@H](C)CC)NC(=O)[C@@H](CCCN)NC2=O)[C@@H](C)CC)CS1 (some centres undefined) (X1-L[dE]IK[dOrn]I[dF]H[dD]N; lactam 4-C) = No
• Cc1nnc(C(C)C)n1C1CC2CCC(C1)N2CC[C@H](NC(=O)C1CCC(F)(F)CC1)c1ccccc1 (some centres undefined) = No
• OCc1ccccc1O[C@@H]1O[C@H](CO)[C@@H](O)[C@H](O)[C@H]1O = No
• CCN(c1cc(C#CCN2CCOCC2)cc(C(=O)NCc2c(C)cc(C)[nH]c2=O)c1C)C1CCC(N(C)CCOC)CC1 (centres undefined) = No
• OC[C@H]1O[C@@H](n2cnc3c2NC=NC[C@H]3O)C[C@@H]1O = No
• C=C1CC[C@@H]2[C@](C)(CO)[C@H](O)CC[C@@]2(C)[C@@H]1C/C=C1/C(=O)OC[C@H]1O = Yes
• Nc1ccn([C@@H]2C(F)=C(CO)[C@@H](O)[C@H]2O)c(=O)n1 = No

Hello, I am checking results. What call was entered for COc1ccc2cc(OCC3(C(=O)O)CN(C(=O)c4ccc(F)cc4)C3)ccc2c1 ?
No

What did the test return for C[C@H]1CN(C[C@H](Cc2ccccc2)C(=O)NCC(=O)O)CC[C@@]1(C)c1cccc(O)c1 ?
No

// return assay outcome for N#Cc1ccnc(N2C(=O)CC[C@H]2C(=O)N(c2cncc(F)c2)[C@H](C(=O)NC2CC(F)(F)C2)c2ccccc2Cl)c1
No

Hello, I am checking results. What call was entered for Cc1nnc(C(C)C)n1C1CC2CCC(C1)N2CCC(NC(=O)C1CCC(F)(F)CC1)c1ccccc1 (centres undefined) ?
No

Dear all, I need the recorded test outcome for CCCCC(=O)OCC(=O)[C@]1(O)Cc2c(O)c3c(c(O)c2[C@@H](O[C@H]2C[C@H](NC(=O)C(F)(F)F)[C@H](O)[C@H](C)O2)C1)C(=O)c1c(OC)cccc1C3=O , thank you.
Yes

Per the records of this test, what outcome belongs to CNc1nc(Nc2cnn([C@H]3CCN(C4COC4)C[C@@H]3F)c2Cl)ncc1C(F)(F)F ?
No

###

- Tested on: HEK293
- Assay method text: Cytotoxic Profiling of Annotated Libraries Using Quantitative High-Throughput Screening (AID 1296008); also: nearly all actives have a fitted effect of over 60% in size
- Condition summary: Five cell lines viability, CellTiter-Glo ATP luminescence, 48-72 h
Results filed as inconclusive are left out. Calls of active or inactive are those of the source. Calls come from the whole dose curve; as a rule, active = well fitted inhibition curve with a large enough effect; inconclusive = small, poorly fitted or top-dose-only effect; inactive = flat fitted curve, though single readings scatter.
Your reply should match one of these outcome classes. active, inactive

Known results for compounds:
- CC1=CC(=O)CC(C)(C)C1CCC(C)OC1OC(COC(=O)c2cc(O)c(O)c(O)c2)C(O)C(O)C1O (stereo not drawn): inactive
- COC1=CC(=O)C[C@@H](C)[C@]12Oc1cc(OC)cc(OC)c1C2=O: inactive
- CC(=O)OC[C@@]12[C@@H](OC(C)=O)C[C@@H](C)[C@](C)([C@@H]3C[C@H]4C=CO[C@H]4O3)[C@H]1CCC[C@]21CO1: inactive
- Cc1cc(O)c(C(C)C)cc1O[C@@H]1O[C@H](CO)[C@@H](O)[C@H](O)[C@H]1O: inactive
- C=C1CC[C@H]2[C@@H](/C=C(\C)C(=O)[C@@]3(OC(C)=O)C[C@H](C)[C@H](OC(C)=O)[C@@H]3[C@H]1OC(C)=O)C2(C)C: inactive
- C=C1C[C@]23C[C@H]1CC[C@H]2[C@]1(C)CCC[C@@]2(CO)C(=O)O[C@H]([C@H]21)[C@@H]3O: inactive

Short answer needed: outcome of this test for CCn1c2ccccc2c2cc(CNC)ccc21 ?
active

Just curious, what result did C[C@]12CCC[C@](C)(C(=O)O)C1CCC13C=C(CO)C(CCC12)C3 (stereo partly drawn) get here?
inactive

###

- Assay method text: Primary qHTS for small molecule stabilizers of the endoplasmic reticulum resident proteome: Secreted ER Calcium Modulated Protein (SERCaMP) assay (AID 1508630); also: % is scaled to controls: 0 for no effect and ±100 for the full control effect
- Condition summary: SH-SY5Y GLuc-SERCaMP (Gaussia luciferase released on ER calcium loss) secretion, thapsigargin, luminescence; series mostly up to 38.4 µM
Results filed as inconclusive are left out. Activity calls are given as the source filed them. Calls follow the shape of the dose curve; as a rule, active = well fitted inhibition curve with a large enough effect; inconclusive = small, poorly fitted or top-dose-only effect; inactive = no such curve, though single readings can be large or run the other way.
Measurement kind: activity change, negative = inhibition

- Cc1ccc(Sc2cncc3sc(C(N)=O)cc23)cc1: inactive
- Cc1cc(/C=C/c2ccc3cc(N(C)C)ccc3[n+]2C)c(C)n1-c1ccccc1: inactive
- COC(=O)C1=CO[C@@H](O[C@@H]2O[C@H](CO)[C@@H](O)[C@H](O)[C@H]2O)[C@@H]2[C@@H](C)[C@@H](O)C[C@H]12: inactive

###

- System: CASKI
- Assay method text: Primary qHTS to identify gynecologic anti-cancer compounds using libraries of approved drugs and bioactive compounds (AID 1345084); also: % is scaled to controls: 0 for no effect and ±100 for the full control effect; nearly all actives have a fitted effect of over 55% in size
- Condition summary: Gynecologic cancer cell panel viability, ATPlite luminescence, 48 h; series mostly up to 57.5 µM
Inconclusive results are not listed. Active and inactive are the calls of the source. Calls follow the shape of the dose curve; as a rule, active = well fitted cell-killing curve with a large enough effect; inconclusive = small, poorly fitted or top-dose-only effect, or effect the other way; inactive = flat fitted curve, though single readings scatter.
Measurement kind: activity change, negative = cytotoxicity

- COC1=CC(=O)C[C@@H](C)[C@]12Oc1cc(OC)cc(OC)c1C2=O: inactive
- Cc1c(-c2ccnn2C)cc(C(=O)NCc2ccc(S(C)(=O)=O)cn2)c(=O)n1-c1cccc(C(F)(F)F)c1: inactive
- CC(C)CC1(C(=O)OCc2ccc(O[C@@H]3O[C@H](CO)[C@@H](O)[C@H](O)[C@H]3O)cc2)CC(=O)OC(C(=O)O)CC(=O)OCC2OC(O1)C(OC(=O)/C=C/c1ccc(O)cc1)C(O)C2O (some centres undefined): -1.89% [at 11.6 µM] (inactive)
- CNC(=O)O[C@H]1COc2ccc(N3CCN(C4COC4)CC3)cc2[C@@H]1NC(=O)c1ccc(F)cc1: inactive
- C[C@@H]1CC[C@]2(C(=O)O)CC[C@]3(C(=O)O)C(=CCC4[C@@]5(C)CC[C@H](O[C@@H]6O[C@@H](C)[C@H](O[C@@H]7O[C@H](CO)[C@@H](O)[C@H](O)[C@H]7O)[C@@H](O)[C@H]6O)C(C)(C)C5CC[C@]43C)C2[C@H]1C (some centres undefined): inactive

Consider the compound O=C1CC(c2ccc([N+](=O)[O-])cc2)=NN1c1ccccc1 . State its measured activity change, negative = cytotoxicity.
inactive

Dear colleague, please send me the reported activity change, negative = cytotoxicity for c1nc(NC2CCCCCC2)c2cc(CNC[C@H]3CCCO3)sc2n1 when you can.
inactive

Give reported activity change, negative = cytotoxicity value for C/C(=C\CCC(C)(O)c1ccc(C)cc1)C(=O)O (centres undefined)
inactive

Respond only with activity change, negative = cytotoxicity recorded for CCCC1=CC2=C(CO1)C(=O)C(C)(OC(=O)c1c(C)cc(OC)cc1O)C(O)C2 (centres undefined)
inactive

###

- System: CP211
- Assay method text: qHTS profiling for inhibitors of Plasmodium falciparum proliferation (AID 504749); also: nearly all actives have a fitted effect of over 60% in size
- Condition summary: P. falciparum in erythrocytes, SYBR Green DNA, 72 h; series mostly up to 28.7 µM
Results filed as inconclusive are left out. Active and inactive are the calls of the source. Calls follow the shape of the dose curve; as a rule, active = well fitted inhibition curve with a large enough effect; inconclusive = small, poorly fitted or top-dose-only effect; inactive = flat fitted curve, though single readings scatter.
Classes to choose from: 1 = active, -1 = inactive

Sample answers from the record:
- CC1=CCC(C(C)(C)O)CC1 (stereo not drawn): -1
- CCCC(=O)O[C@]1(C(=O)CCl)[C@H](C)C[C@@H]2[C@H]3CCC4=CC(=O)C=C[C@]4(C)[C@@]3(F)C(=O)C[C@@]21C: 1
- CC(C)(C)C(=O)OCOC(=O)[C@@H]1N2C(=O)[C@@H](N=CN3CCCCCC3)[C@H]2SC1(C)C: -1
- C[C@H]1C[C@H]2[C@@H]3CCC4=CC(=O)C=C[C@]4(C)[C@@]3(F)[C@@H](O)C[C@]2(C)[C@@]1(O)C(=O)CO: -1
- O=CCCCC=O: -1
- CC1=C(/C=C/C(C)=C/C=C/C(C)=C/C=C/C=C(C)/C=C/C=C(C)/C=C/C2=C(C)CCCC2(C)C)C(C)(C)CCC1: -1
- O=C(COc1ccc(Cl)cc1)OCCNC12CC3CC(CC(C3)C1)C2: -1
- CCCCCCCC(=O)O: -1
- C[C@]12CCC(=O)C=C1CC[C@@H]1[C@@H]2[C@@H](O)C[C@@]2(C)[C@H]1CC[C@]2(O)C(=O)COP(=O)(O)O: -1
- COC(=O)C1=C(C#N)NC(C)=C(C(=O)OC(C)C)C1c1cccc([N+](=O)[O-])c1 (stereo not drawn): 1

Outcome logged for COc1cc(-c2ccc(-[n+]3nc(-c4ccccc4)nn3-c3ccc([N+](=O)[O-])cc3)c(OC)c2)ccc1-[n+]1nc(-c2ccccc2)nn1-c1ccc([N+](=O)[O-])cc1 in this assay:
1

For this compound, state the assay outcome: CCCCC(=O)O[C@]1(C(=O)CO)[C@H](C)C[C@H]2[C@@H]3CCC4=CC(=O)C=C[C@]4(C)[C@@]3(F)[C@@H](O)C[C@@]21C
-1

GET /call?item= CCOc1ccc2c(c1)C(C)=CC(C)(C)N2 returns the recorded outcome of this test.
-1

Please let me know the test result on file for CCOc1ccc(N=Nc2ccc(N)cc2N)cc1 .
-1

What did the test return for Cc1c(C)c2c(c(C)c1O)CC[C@@](C)(CCC[C@H](C)CCC[C@H](C)CCCC(C)C)O2 ?
-1

What classification did C#C[C@]1(O)CC[C@H]2[C@@H]3CCC4=CCCC[C@@H]4[C@H]3C(=C)C[C@@]21CC end up with in this test?
-1

Hey, what did the test say about CCCCCCCC/C=C\CCCCCCCC(=O)O ?
-1

Status in this test for O=C(O)CCC(=O)C(=O)O ?
-1
